Test system: AR mRNA
Run description: Dose-dependent antisense inhibition of human AR in HuVEC cells (electroporation, qRT-PCR RTS3559, IC50)
Format: cell-based
Conditions: Table 34; 187.5 nM, HuVEC, electroporation, approximately 16 hours
Oligonucleotides are written 5' to 3', each unit as a sugar letter and its base; * is a phosphorothioate linkage, no mark a phosphodiester; rarer units and linkages stand in square brackets, end groups in braces. Plain capitals give the bases only. k = constrained ethyl (cEt); [5mC] = 5-methylcytosine; d = 2'-deoxy (DNA)
// percent inhibition of AR, 187.5 nM lookup, one value per entry
# answer = value followed by unit

Sample answers from the record:
Substance	Assayed target	percent inhibition of AR, 187.5 nM
583933 (k[5mC]*kA*kG*d[5mC]*dG*dG*dG*dT*dT*d[5mC]*dT*d[5mC]*d[5mC]*kA*kG*k[5mC]; antisense) [compound 583933]	AR mRNA	25%
583996 (k[5mC]*kG*k[5mC]*d[5mC]*dA*dG*dG*dG*dT*dA*d[5mC]*d[5mC]*dA*k[5mC]*kA*k[5mC]; antisense) [compound 583996]	AR mRNA	12%
584139 (kT*k[5mC]*kT*dA*dA*dA*d[5mC]*dA*dT*dG*dA*d[5mC]*dG*kG*kT*kT; antisense) [compound 584139]	AR mRNA	33%
584006 (kA*k[5mC]*kA*d[5mC]*dA*dA*dG*dT*dG*dG*dG*dA*d[5mC]*kT*kG*kG; antisense) [compound 584006]	AR mRNA	26%
583998 (k[5mC]*kA*kT*dG*d[5mC]*d[5mC]*dG*d[5mC]*d[5mC]*dA*dG*dG*dG*kT*kA*k[5mC]; antisense) [compound 583998]	AR mRNA	25%
584069 (k[5mC]*kA*kG*dA*dG*dT*d[5mC]*dA*dT*d[5mC]*d[5mC]*d[5mC]*dT*kG*k[5mC]*kT; antisense) [compound 584069]	AR mRNA	40%
583922 (kA*kG*kT*dT*dG*dT*dA*dG*dT*dA*dG*dT*d[5mC]*kG*k[5mC]*kG; antisense) [compound 583922]	AR mRNA	43%
583990 (kA*k[5mC]*kA*d[5mC]*dA*dT*d[5mC]*dA*dG*dG*dT*dG*d[5mC]*kG*kG*kT; antisense) [compound 583990]	AR mRNA	9%
583932 (kT*k[5mC]*kT*d[5mC]*d[5mC]*dA*dG*d[5mC]*dT*dT*dG*dA*dT*kG*k[5mC]*kG; antisense) [compound 583932]	AR mRNA	35%
583917 (kT*k[5mC]*kG*d[5mC]*dG*dA*d[5mC]*dT*d[5mC]*dT*dG*dG*dT*kA*k[5mC]*kG; antisense) [compound 583917]	AR mRNA	30%

-- ask Report percent inhibition of AR, 187.5 nM for 584125 (kG*k[5mC]*k[5mC]*dA*dT*dG*dA*dG*dA*d[5mC]*dA*dG*d[5mC]*kT*kT*kT; antisense) [compound 584125] please.
-- reply 12%

-- ask Report percent inhibition of AR, 187.5 nM for 584044 (k[5mC]*k[5mC]*k[5mC]*dT*dT*d[5mC]*dA*dG*d[5mC]*dG*dG*d[5mC]*dT*k[5mC]*kT*kT; antisense) [compound 584044] please.
-- reply 30%

* * *

Test system: AR mRNA
Run description: Dose-dependent antisense inhibition of human AR in HuVEC cells (electroporation, qRT-PCR RTS3559, IC50)
Assay type: cell-based
Conditions: Table 31; 187.5 nM, HuVEC, electroporation, approximately 16 hours
Method: After a treatment period of approximately 16 hours, RNA was isolated from the cells and AR mRNA levels were measured by quantitative real-time PCR. Human AR primer probe set RTS3559 was used to measure mRNA levels. AR mRNA levels were adjusted according to total RNA content, as measured by RIBOGREEN®. […] After a treatment period of approximately 16 hours, RNA was isolated from the cells and AR mRNA levels were measured by quantitative real-time PCR. […]
Oligonucleotides are written 5' to 3', each unit as a sugar letter and its base; * is a phosphorothioate linkage, no mark a phosphodiester; rarer units and linkages stand in square brackets, end groups in braces. Plain capitals give the bases only. k = constrained ethyl (cEt); [5mC] = 5-methylcytosine; d = 2'-deoxy (DNA)
// percent inhibition of AR, 187.5 nM lookup, one value per entry
All answers are understood in %, so give the number only.

Substance	Unit name	percent inhibition of AR, 187.5 nM
583714 (antisense kT*k[5mC]*k[5mC]*dA*dT*d[5mC]*d[5mC]*dT*dT*dG*dA*dG*d[5mC]*kT*kT*kG) [compound 583714]	%	34

-- ask Report percent inhibition of AR, 187.5 nM for 583713 (antisense kA*kT*k[5mC]*d[5mC]*dT*dT*dG*dA*dG*d[5mC]*dT*dT*dG*kG*k[5mC]*kT) [compound 583713] please.
-- reply 51

-- ask Report percent inhibition of AR, 187.5 nM for 583809 (antisense kT*kG*kT*d[5mC]*d[5mC]*dT*dT*dG*dG*dA*dG*dG*dA*kA*kG*kT) [compound 583809] please.
-- reply 37

-- ask Report percent inhibition of AR, 187.5 nM for 583731 (antisense k[5mC]*kG*k[5mC]*dG*d[5mC]*dA*d[5mC]*dG*d[5mC]*dT*d[5mC]*dT*dG*kG*kA*kA) [compound 583731] please.
-- reply 24

* * *

// percent inhibition of AR lookup, one value per entry
Tested on: AR mRNA
Run description: Dose-dependent antisense inhibition of human AR in HuVEC cells (electroporation, qRT-PCR RTS3559, IC50)
Assay type: cell-based
Conditions: 31.25 nM; HuVEC, ~16 h; Table 6
Oligonucleotides are written 5' to 3', each unit as a sugar letter and its base; * is a phosphorothioate linkage, no mark a phosphodiester; rarer units and linkages stand in square brackets, end groups in braces. Plain capitals give the bases only. k = constrained ethyl (cEt); d = 2'-deoxy (DNA)
All answers are understood in %, so give the number only.

-- ask Request: percent inhibition of AR, test system AR mRNA, entry 560137 (antisense TTGATTTAATGGTTGC; all C 5-methyl, all phosphorothioate, sugars by position not given here; further chemistry not fully specified) [compound 560137]
-- reply 27

-- ask Request: percent inhibition of AR, test system AR mRNA, entry 560099 (kG*kG*kT*dT*dG*dA*dT*dT*dT*dA*dA*dT*dG*kG*kT*kT) [compound 560099]
-- reply 13

-- ask Request: percent inhibition of AR, test system AR mRNA, entry 560100 (antisense kT*kG*kG*dT*dT*dG*dA*dT*dT*dT*dA*dA*dT*kG*kG*kT) [compound 560100]
-- reply 16

* * *

Tested on: AR mRNA
Run description: Dose-dependent antisense inhibition of human AR in HuVEC cells (electroporation, qRT-PCR RTS3559, IC50)
Assay type: cell-based
Conditions: Table 30; 750.0 nM, HuVEC, electroporation, approximately 16 hours
Oligonucleotides are written 5' to 3', each unit as a sugar letter and its base; * is a phosphorothioate linkage, no mark a phosphodiester; rarer units and linkages stand in square brackets, end groups in braces. Plain capitals give the bases only. k = constrained ethyl (cEt); [5mC] = 5-methylcytosine; d = 2'-deoxy (DNA)
Measured parameter: percent inhibition of AR, 750.0 nM
# answer = value followed by unit

Substance	percent inhibition of AR, 750.0 nM
583642 (antisense kA*kG*kT*dG*dT*d[5mC]*d[5mC]*dA*d[5mC]*dT*dG*dA*dA*kG*kT*kA) [compound 583642]	67%

-- ask Report percent inhibition of AR, 750.0 nM for 583745 (antisense k[5mC]*kG*k[5mC]*dT*d[5mC]*dG*d[5mC]*dG*dG*d[5mC]*d[5mC]*dT*d[5mC]*kT*kG*kG) [compound 583745] please.
-- reply 68%

-- ask Report percent inhibition of AR, 750.0 nM for 583736 (antisense kT*kG*kG*dA*dT*d[5mC]*dA*d[5mC]*dT*dT*d[5mC]*dG*d[5mC]*kG*k[5mC]*kA) [compound 583736] please.
-- reply 60%

-- ask Report percent inhibition of AR, 750.0 nM for 583689 (antisense kA*kT*kG*d[5mC]*dG*dG*dT*dA*dG*dT*d[5mC]*dG*d[5mC]*kT*kG*k[5mC]) [compound 583689] please.
-- reply 62%

* * *

System: AR mRNA
Run description: AR mRNA in liver, heart, skeletal muscle, kidney, prostate of cynomolgus monkeys
Format: in vivo
Conditions: cynomolgus monkey, 40 mg/kg subcutaneously, weeks 1 to 6, Liver
Oligonucleotides are written 5' to 3', each unit as a sugar letter and its base; * is a phosphorothioate linkage, no mark a phosphodiester; rarer units and linkages stand in square brackets, end groups in braces. Plain capitals give the bases only. e = 2'-O-(2-methoxyethyl) (MOE); k = constrained ethyl (cEt); [5mC] = 5-methylcytosine; d = 2'-deoxy (DNA)
Measured parameter: Percent Inhibition of AR mRNA relative to the PBS control, Liver
# answer = value followed by unit

Substance	Measurement
584269 (k[5mC]*k[5mC]*kT*dT*dA*dT*dG*dG*dA*dT*dG*d[5mC]*dT*kG*k[5mC]*kT) [compound 584269]	96%

-- ask Report Percent Inhibition of AR mRNA relative to the PBS control, Liver for 560131 (antisense kT*kT*kG*dA*dT*dT*dT*dA*dA*dT*dG*dG*kT*kT*kG*e[5mC]) [compound 560131] please.
-- reply 65%

-- ask Report Percent Inhibition of AR mRNA relative to the PBS control, Liver for 584468 (k[5mC]*kA*kT*dT*dG*dT*dA*d[5mC]*dT*dA*dT*dG*d[5mC]*k[5mC]*kA*kG) [compound 584468] please.
-- reply 97%

Provenance of the data: patent USRE48461E1
